target: Neuronal acetylcholine receptor; alpha4/beta2 (Homo sapiens, UniProt P17787+P43681); test: Displacement of [3H]epibatadine from human alpha4beta2 nAChR expressed in HEK293T cells after 1.5 hrs by scintillation counting analysis
Sequence (P17787 whole entry): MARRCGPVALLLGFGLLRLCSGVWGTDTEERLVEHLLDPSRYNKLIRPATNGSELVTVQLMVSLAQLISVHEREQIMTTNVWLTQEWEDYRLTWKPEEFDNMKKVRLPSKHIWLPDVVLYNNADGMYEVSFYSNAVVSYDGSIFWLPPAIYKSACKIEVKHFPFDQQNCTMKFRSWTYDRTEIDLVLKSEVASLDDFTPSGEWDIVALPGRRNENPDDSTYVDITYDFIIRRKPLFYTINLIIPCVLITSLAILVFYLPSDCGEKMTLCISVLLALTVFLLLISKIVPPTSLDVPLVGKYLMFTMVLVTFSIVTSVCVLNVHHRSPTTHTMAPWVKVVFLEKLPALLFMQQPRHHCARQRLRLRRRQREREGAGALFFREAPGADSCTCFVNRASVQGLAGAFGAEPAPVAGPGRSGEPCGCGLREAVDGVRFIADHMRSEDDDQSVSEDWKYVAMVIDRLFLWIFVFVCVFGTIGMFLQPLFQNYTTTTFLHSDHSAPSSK
Sequence (P43681 whole entry): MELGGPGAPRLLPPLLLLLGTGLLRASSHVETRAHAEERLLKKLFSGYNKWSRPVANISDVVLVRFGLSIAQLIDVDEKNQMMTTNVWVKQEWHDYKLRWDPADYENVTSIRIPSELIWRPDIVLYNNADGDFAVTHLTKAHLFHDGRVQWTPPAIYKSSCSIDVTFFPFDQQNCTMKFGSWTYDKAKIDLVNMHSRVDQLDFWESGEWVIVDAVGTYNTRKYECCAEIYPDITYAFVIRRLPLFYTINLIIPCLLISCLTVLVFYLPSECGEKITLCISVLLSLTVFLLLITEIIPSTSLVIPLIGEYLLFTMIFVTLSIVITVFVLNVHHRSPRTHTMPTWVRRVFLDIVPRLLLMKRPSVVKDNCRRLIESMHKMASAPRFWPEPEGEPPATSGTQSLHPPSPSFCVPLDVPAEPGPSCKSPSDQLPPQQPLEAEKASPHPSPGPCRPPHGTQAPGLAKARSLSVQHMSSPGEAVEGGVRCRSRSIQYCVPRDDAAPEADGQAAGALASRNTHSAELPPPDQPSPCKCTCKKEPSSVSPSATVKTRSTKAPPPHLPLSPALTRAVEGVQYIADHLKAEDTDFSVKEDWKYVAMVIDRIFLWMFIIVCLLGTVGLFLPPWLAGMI
pKi: −log10 of the molar value.
readout label: pKi

[
  {
    "line notation": "CC(C)N1CCC(=NO)CC1",
    "value observed": "< 4.00"
  }
]

---

The molecules listed here are annotated with their pKi.
target: Neuronal acetylcholine receptor subunit alpha-7 (Homo sapiens, UniProt P36544); assay: Displacement of [3H]epibatadine from human alpha7 nAChR expressed in human SH-SY5Y cells after 1.5 hrs by scintillation counting analysis
Sequence (P36544 whole entry): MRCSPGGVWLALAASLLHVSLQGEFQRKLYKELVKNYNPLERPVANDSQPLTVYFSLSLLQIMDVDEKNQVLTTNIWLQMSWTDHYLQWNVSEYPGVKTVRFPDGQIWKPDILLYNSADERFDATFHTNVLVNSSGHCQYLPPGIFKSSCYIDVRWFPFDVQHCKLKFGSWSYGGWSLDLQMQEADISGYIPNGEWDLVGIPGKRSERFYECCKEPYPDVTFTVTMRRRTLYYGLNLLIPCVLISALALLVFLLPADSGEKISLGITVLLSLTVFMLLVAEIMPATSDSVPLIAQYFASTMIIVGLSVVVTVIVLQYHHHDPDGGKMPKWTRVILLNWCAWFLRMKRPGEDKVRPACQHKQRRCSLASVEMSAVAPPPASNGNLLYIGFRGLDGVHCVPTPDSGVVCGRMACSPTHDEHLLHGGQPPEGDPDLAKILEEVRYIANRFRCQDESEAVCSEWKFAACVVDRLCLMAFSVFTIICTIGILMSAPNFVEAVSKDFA
pKi: −log10 of the molar value.

[
  {
    "line notation": "Fc1ccc(F)c(NN=C2CCN(CCc3ccccc3)CC2)c1",
    "experimental system": "Neuronal acetylcholine receptor subunit alpha-7 (Homo sapiens, UniProt P36544)",
    "modifier sign": "<",
    "pKi": 4.00
  },
  {
    "line notation": "CC(C)N1CCC(=NO)CC1",
    "experimental system": "Neuronal acetylcholine receptor subunit alpha-7 (Homo sapiens, UniProt P36544)",
    "modifier sign": "=",
    "pKi": 4.99
  },
  {
    "line notation": "CN1[C@@H]2CC[C@H]1C/C(=N\\Nc1ccccc1Cl)C2",
    "experimental system": "Neuronal acetylcholine receptor subunit alpha-7 (Homo sapiens, UniProt P36544)",
    "modifier sign": "=",
    "pKi": 5.66
  }
]
